# Stated conditions: PAMPA, pH 7.4
Where a SMILES comes first, the peptide text is derived from it. [ ]: non-standard residue; d: D form. Arg(ω,ω'-(C6H13OCO)2) = CCCCCCOC(=O)N=C(NCCC[C@H](N)C(=O)O)NC(=O)OCCCCCC
Endpoint: Permeability, replicate 2

Solved cases (4 shown):
compound="CC(C)C[C@@H]1NC(=O)[C@H](CC(=O)O)NC(=O)CNC(=O)[C@H](CCCNC(=N)N)NC(=O)[C@H](Cc2ccccc2)NC(=O)[C@@H]2CCCN2C(=O)[C@@H]2CCCN2C(=O)[C@H](CC(C)C)NC(=O)[C@H](C)NC1=O [OM1186] (cyclo(RGDLALPPF))" endpoint="Permeability, replicate 2" observed_result="<−7 Log10[10^−6 cm/s]"
compound="CCCCCCOC(=O)N=C(N)NCCC[C@@H]1NC(=O)[C@@H](C(C)C)N(C)C(=O)[C@H](C)N(C)C(=O)[C@H](C)NC(=O)[C@H](CC(=O)OC)NC(=O)CNC1=O [#29P-Hoc]" endpoint="Permeability, replicate 2" observed_result="<−7 Log10[10^−6 cm/s]"
compound="C=C[C@H]1C[N@@]2CC[C@H]1C[C@@H]2[C@@H](O)c1ccnc2ccc(OC)cc12 [Quinidine, reference compound]" endpoint="Permeability, replicate 2" observed_result="−4.5 Log10[10^−6 cm/s]"
compound="CNC(=C[N+](=O)[O-])NCCSCc1ccc(CN(C)C)o1 [Ranitidine, reference compound]" endpoint="Permeability, replicate 2" observed_result="<−7 Log10[10^−6 cm/s]"

I would be grateful if you could provide Permeability, replicate 2 for each of the following entries.
1. C[C@@H]1NC(=O)[C@H](C)NC(=O)[C@@H](C)N(C)C(=O)[C@H](C)N(C)C(=O)[C@H](C)NC(=O)[C@H](C)NC1=O
2. CCCCCCOC(=O)N=C(NCCC[C@@H]1NC(=O)[C@H](C(C)C)N(C)C(=O)[C@@H](Cc2ccccc2)NC(=O)[C@H](CC(=O)OC)NC(=O)CNC1=O)NC(=O)OCCCCCC
3. CCCCCCOC(=O)N=C(NCCC[C@@H]1NC(=O)[C@H](Cc2ccccc2)NC(=O)[C@@H]2CCCN2C(=O)[C@@H]2CCCN2C(=O)[C@H](CC(C)C)NC(=O)[C@H](C)NC(=O)[C@H](CC(C)C)NC(=O)[C@H](CC(=O)OC)NC(=O)CNC1=O)NC(=O)OCCCCCC [AR372] (cyclo(ALPPF[Arg(ω,ω'-(C6H13OCO)2)]GD(OMe)L))
4. CC(C)C[C@@H]1NC(=O)CNC(=O)[C@@H]2CCCN2C(=O)[C@@H]2CCCN2C(=O)[C@H](CC(C)C)NC(=O)[C@H](CC(=O)O)NC(=O)CNC(=O)[C@H](CCCNC(=N)N)NC1=O [FRX068] (cyclo(RGDLPPGL))

1: <−7 Log10[10^−6 cm/s]; 2: −6.6 Log10[10^−6 cm/s]; 3: −5.7 Log10[10^−6 cm/s]; 4: <−7 Log10[10^−6 cm/s]
